target: Kappa-type opioid receptor (Homo sapiens)
Sequence (P41145 whole entry): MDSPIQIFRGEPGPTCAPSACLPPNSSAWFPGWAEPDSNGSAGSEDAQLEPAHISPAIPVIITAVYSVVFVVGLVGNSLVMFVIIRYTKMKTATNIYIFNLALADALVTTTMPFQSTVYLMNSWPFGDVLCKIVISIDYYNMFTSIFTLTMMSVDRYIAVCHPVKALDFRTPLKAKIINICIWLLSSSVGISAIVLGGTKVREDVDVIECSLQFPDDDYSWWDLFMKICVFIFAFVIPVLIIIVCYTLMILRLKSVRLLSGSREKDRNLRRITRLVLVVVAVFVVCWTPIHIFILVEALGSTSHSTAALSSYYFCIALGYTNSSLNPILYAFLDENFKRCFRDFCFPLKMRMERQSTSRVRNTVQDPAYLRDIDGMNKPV
pKi: −log10 of the molar value.

# COMPOUND, TARGET_ENTITY, pKi
data = [
    ("Clc1ccccc1C(c1ccccc1)(c1ccccc1)n1ccnc1", "Kappa-type opioid receptor (Homo sapiens)", 5.60),
]

###

target: Sigma non-opioid intracellular receptor 1 (Homo sapiens, UniProt Q99720); test: DRUGMATRIX: Sigma1 radioligand binding (ligand: [3H] Haloperidol); assay type: cell membranes, Jurkat, Membrane; conditions: jurkat; Not Active = under 50% inhibition at 10 µM
Sequence (Q99720 whole entry): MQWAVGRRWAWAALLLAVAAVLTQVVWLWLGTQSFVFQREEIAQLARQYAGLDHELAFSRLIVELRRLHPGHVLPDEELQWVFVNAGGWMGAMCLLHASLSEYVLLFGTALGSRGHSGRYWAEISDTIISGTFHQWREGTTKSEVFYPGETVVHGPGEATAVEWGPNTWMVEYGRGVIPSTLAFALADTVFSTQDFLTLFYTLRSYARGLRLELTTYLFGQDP
OBSERVED_PROPERTY: IC50

# SUBSTANCE, MEASURED_VALUE
rows = [
    ("IVERMECTIN", "Not Active"),
    ("CISPLATIN", "Not Active"),
    ("OXALIPLATIN", "Not Active"),
    ("GOLD SODIUM THIOMALATE", "Not Active"),
    ("CARBOPLATIN", "Not Active"),
]

###

target: Glucocorticoid receptor (Homo sapiens); conditions: hela s3; note: in other assays of this panel Not Active means under 50% inhibition at 10 µM
Sequence (P04150 whole entry): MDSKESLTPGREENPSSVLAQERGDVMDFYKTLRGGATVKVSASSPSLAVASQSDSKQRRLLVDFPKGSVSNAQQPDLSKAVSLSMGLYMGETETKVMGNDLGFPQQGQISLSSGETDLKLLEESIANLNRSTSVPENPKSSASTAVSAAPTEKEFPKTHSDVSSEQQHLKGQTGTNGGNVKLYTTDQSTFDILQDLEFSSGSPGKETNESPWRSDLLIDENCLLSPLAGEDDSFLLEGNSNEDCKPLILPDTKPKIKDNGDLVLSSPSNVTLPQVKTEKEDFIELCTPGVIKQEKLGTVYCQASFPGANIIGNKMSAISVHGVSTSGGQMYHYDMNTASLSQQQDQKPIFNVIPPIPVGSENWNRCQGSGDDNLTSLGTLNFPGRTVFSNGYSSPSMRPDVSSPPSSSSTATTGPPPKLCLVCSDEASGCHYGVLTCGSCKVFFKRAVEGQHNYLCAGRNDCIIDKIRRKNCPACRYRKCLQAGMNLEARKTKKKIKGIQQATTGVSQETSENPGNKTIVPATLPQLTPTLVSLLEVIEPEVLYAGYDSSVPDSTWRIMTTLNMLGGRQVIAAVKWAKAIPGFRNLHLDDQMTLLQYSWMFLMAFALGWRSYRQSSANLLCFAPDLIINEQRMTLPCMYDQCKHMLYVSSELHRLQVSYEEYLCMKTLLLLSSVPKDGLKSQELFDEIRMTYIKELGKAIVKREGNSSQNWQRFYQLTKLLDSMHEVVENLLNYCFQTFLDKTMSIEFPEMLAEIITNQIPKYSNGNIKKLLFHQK

# COMPOUND, TARGET_ENTITY, IC50
measured = [
    ("C[C@]12Cc3c[nH]nc3C[C@@H]1CC[C@@H]1[C@@H]2CC[C@@]2(C)[C@H]1CC[C@]2(C)O [STANOZOLOL]", "Glucocorticoid receptor (Homo sapiens)", "Not Active"),
    ("Oc1c(Cl)cc(Cl)cc1Sc1cc(Cl)cc(Cl)c1O [BITHIONOL]", "Glucocorticoid receptor (Homo sapiens)", "Not Active"),
    ("C=CC[C@@H]1/C=C(\\C)C[C@H](C)C[C@H](OC)[C@H]2O[C@@](O)(C(=O)C(=O)N3CCCC[C@H]3C(=O)O[C@H](/C(C)=C/[C@@H]3CC[C@@H](O)[C@H](OC)C3)[C@H](C)[C@@H](O)CC1=O)[C@H](C)C[C@@H]2OC [TACROLIMUS ANHYDROUS]", "Glucocorticoid receptor (Homo sapiens)", "Not Active"),
]

###

Biological target: Amine oxidase [flavin-containing] A (Homo sapiens)
Sequence (P21397 whole entry): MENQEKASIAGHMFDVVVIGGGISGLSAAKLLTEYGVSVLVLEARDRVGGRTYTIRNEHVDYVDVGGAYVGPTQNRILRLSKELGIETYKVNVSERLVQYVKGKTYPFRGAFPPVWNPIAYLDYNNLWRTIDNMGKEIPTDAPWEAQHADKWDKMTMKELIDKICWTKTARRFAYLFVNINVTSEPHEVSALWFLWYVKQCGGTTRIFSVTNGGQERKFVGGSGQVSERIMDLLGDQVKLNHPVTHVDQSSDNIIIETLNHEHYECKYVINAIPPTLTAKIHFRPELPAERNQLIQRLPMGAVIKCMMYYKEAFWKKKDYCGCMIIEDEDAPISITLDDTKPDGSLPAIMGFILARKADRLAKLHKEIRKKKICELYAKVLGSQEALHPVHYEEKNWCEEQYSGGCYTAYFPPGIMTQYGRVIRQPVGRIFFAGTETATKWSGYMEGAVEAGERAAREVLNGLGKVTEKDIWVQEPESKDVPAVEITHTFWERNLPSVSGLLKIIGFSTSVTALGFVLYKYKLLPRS
Experiment: DRUGMATRIX: Monoamine Oxidase MAO-A enzyme inhibition (substrate: Kynuramine)
Parameters: species or system BTI-TN-5B1-4
Details: Not Active = under 50% inhibition at 10 µM; read-out: IC50

# COMPOUND, RESULT_UNIT, IC50
data = [
    ("c1ccc2c(c1)cc1ccc3cccc4ccc2c1c34", "µM", 5.97),
]

Every entry's value here was drawn from ChEMBL document CHEMBL1909046.
